# key: entry, value: EC50
Measured On: CRE1/AHK4 (Arabidopsis thaliana, UniProt Q9C5U0)
Sequence (Q9C5U0 whole entry): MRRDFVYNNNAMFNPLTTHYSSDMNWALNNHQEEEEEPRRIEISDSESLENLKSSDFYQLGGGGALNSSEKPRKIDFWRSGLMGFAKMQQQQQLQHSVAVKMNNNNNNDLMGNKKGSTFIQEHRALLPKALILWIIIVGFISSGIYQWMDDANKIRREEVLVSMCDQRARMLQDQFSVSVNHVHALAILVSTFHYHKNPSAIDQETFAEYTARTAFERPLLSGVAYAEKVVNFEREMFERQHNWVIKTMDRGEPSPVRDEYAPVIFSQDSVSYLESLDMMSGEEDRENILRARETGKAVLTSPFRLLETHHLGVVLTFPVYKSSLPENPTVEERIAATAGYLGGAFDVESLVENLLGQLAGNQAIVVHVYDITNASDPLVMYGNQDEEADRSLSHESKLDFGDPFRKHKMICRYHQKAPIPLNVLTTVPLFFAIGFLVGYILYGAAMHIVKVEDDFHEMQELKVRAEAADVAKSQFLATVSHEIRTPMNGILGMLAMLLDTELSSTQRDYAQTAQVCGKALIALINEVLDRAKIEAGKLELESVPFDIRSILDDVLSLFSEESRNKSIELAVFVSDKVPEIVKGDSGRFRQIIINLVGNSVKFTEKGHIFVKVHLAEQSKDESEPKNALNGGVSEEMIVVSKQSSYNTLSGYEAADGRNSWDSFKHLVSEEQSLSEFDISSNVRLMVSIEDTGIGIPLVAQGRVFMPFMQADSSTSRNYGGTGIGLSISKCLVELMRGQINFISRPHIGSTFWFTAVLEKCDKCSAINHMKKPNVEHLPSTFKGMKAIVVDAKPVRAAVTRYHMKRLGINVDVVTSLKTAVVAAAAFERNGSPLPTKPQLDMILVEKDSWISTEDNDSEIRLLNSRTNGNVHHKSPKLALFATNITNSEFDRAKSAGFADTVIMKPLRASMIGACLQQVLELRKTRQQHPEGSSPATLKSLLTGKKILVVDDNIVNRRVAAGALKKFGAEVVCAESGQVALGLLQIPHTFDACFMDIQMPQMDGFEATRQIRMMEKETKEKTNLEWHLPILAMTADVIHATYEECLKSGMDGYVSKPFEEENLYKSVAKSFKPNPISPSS
Experiment Description: Activation of cytokinin receptors (E. coli KMI001 beta-galactosidase reporter)
Condition Set: 17 h incubation; n.a. means no activation
A number alone suffices; assume µM.

Known EC50 results, listed for orientation:
Lab note: COc1cccc(Nc2nc(F)nc3nc[nH]c23)c1 [Compound 51, 2-Fluoro-6-(3-methoxyanilino)purine] gave EC50 of 43

The recorded EC50 for Oc1ccc(Nc2nc(F)nc3[nH]cnc23)cc1 [Compound 49] is 37.1

Item: Fc1nc(Nc2ccccc2)c2nc[nH]c2n1 [Compound 40] | EC50: 46.2

Next up:
The compound identified as Oc1cccc(Nc2nc(Cl)nc3nc[nH]c23)c1 [Compound 9, 2-Chloro-6-(3-hydroxyanilino)purine] registered its EC50 at 37.1
